assayed-system: CXCR1 receptor (Homo sapiens, UniProt P25024)
Construct: β-galactosidase enzyme-complementation fragment (PathHunter system); host or cells: U2OS
Sequence (P25024 whole entry, the tested form may be a part): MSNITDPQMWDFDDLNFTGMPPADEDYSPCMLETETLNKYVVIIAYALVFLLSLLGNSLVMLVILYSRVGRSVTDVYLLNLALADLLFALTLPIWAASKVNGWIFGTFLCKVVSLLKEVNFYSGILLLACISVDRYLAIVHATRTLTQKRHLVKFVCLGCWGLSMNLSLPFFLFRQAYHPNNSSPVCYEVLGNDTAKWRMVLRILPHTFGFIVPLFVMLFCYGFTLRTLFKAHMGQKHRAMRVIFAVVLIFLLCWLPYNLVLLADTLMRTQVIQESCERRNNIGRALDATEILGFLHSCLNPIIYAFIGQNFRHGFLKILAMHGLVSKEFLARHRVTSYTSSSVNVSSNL
measurement-notes: β-arrestin 2 recruitment test after CXCL8 activation, U2OS hCXCR1 β-arrestin cells
Type: cell-based
test-conditions: stimulation with CXCL8 (10 nM), read-out: CXCR1 (nM), IC50 = half inhibition concentration
reported-endpoint: IC50 (nM)

molecule="Cc1ccc(C(Nc2c(Nc3cccc(C(=O)N(C)C)c3O)c(=O)c2=O)C2CCSCC2)o1 (centres unmarked)" reported=3390
molecule="Cc1ccc(C(Nc2c(Nc3cccc(C(=O)N(C)C)c3O)c(=O)c2=O)C2CCOCC2)o1 (centres unmarked)" reported=5440
